- TARGET ENTITY: wild-type human cardiac sodium channel, hNav1.5 (Homo sapiens)
- Sequence (Q14524 whole entry): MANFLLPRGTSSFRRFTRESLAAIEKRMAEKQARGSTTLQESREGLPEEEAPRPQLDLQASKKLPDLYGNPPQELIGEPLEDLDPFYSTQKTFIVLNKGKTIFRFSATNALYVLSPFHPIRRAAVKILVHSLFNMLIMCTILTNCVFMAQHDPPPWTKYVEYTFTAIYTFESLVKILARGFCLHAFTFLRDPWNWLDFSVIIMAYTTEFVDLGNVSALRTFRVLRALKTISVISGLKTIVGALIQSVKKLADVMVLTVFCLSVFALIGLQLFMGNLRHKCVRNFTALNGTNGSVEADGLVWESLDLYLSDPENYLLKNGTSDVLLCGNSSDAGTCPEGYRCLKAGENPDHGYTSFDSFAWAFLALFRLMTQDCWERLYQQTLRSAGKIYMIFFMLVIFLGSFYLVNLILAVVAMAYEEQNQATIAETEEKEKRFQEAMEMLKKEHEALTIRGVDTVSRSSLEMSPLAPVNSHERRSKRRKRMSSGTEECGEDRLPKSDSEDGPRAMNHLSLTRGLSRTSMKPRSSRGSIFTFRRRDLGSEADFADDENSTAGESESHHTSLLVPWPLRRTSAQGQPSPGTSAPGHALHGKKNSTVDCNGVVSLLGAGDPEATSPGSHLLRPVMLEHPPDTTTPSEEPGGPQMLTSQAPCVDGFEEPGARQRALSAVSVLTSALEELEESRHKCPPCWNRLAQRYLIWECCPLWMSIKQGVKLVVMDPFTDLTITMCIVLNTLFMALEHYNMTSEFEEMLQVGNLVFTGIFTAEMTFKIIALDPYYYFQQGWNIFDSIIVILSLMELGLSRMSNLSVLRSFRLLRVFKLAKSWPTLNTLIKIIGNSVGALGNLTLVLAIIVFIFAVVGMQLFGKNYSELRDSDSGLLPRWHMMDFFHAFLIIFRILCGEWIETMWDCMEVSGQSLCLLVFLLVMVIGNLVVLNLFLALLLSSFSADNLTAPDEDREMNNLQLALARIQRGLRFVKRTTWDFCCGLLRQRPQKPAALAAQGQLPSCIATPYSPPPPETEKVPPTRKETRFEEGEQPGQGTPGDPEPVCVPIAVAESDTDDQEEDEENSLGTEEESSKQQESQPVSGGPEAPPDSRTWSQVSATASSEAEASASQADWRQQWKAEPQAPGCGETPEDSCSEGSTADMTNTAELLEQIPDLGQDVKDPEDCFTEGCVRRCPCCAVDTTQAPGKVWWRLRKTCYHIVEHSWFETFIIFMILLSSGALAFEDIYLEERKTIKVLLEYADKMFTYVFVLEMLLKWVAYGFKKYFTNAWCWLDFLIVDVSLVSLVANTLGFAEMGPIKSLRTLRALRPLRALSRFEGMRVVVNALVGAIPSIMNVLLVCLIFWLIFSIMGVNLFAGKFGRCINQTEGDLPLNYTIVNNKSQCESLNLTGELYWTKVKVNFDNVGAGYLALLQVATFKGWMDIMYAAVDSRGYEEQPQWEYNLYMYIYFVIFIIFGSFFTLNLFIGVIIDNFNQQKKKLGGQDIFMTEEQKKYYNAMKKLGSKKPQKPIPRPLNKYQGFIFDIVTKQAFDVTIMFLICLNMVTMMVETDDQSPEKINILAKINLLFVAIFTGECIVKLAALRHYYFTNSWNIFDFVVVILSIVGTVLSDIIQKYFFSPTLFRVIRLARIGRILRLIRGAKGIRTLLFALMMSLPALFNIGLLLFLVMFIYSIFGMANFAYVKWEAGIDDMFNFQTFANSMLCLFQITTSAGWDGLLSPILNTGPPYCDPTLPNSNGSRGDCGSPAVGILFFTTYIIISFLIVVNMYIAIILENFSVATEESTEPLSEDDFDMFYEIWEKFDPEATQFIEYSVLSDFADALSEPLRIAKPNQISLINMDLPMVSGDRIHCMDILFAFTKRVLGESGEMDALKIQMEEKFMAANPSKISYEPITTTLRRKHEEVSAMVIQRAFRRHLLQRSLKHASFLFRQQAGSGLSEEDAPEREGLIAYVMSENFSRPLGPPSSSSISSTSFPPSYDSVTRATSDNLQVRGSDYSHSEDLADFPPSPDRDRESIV
- ASSAY DETAILS: Late INa screening assay (QPatch whole cell patch clamp, HEK293)
- Type: cell-based
- TEST PARAMETERS: HEK293, percent block of late INa; compound at 1 μM; 10 μM Tefluthrin; read-out: Late INa 1 μM
- Procedure: The late sodium current (Late INa) and peak sodium current (Peak INa) assays are performed on an automated electrophysiology platform, QPatch 16× (Sophion Bioscience, Copenhagen, Denmark), which uses the whole cell patch clamp technique to measure currents through the cell membrane of up to 16 cells at a time. The assay uses an HEK293 (human embryonic kidney) cell line heterologously expressing the wild-type human cardiac sodium channel, hNav1.5, purchased from Millipore (Billerica, Mass.). […]
# inhibition at 1 µM values compiled below
MEASURED QUANTITY: inhibition at 1 µM

[[record]]
molecule = "O=C1c2cc(-c3ccc(OC(F)(F)F)cc3)ccc2OCCN1Cc1ccc2c(c1)OCCO2"
measured_quantity = "inhibition at 1 µM"
assay_result = "26%"

[[record]]
molecule = "O=C1c2cc(-c3ccc(OC(F)(F)F)cc3)ccc2OCCN1Cc1cccc(C(F)(F)F)n1"
measured_quantity = "inhibition at 1 µM"
assay_result = "48%"

[[record]]
molecule = "C[C@@H]1COc2ccc(-c3ccc(C(F)(F)F)cc3)cc2C(=O)N1Cc1ncccn1"
measured_quantity = "inhibition at 1 µM"
assay_result = "18%"

[[record]]
molecule = "O=C1c2cc(-c3ccc(OC(F)(F)F)cc3)ccc2OCCN1Cc1ccc(F)c(F)c1"
measured_quantity = "inhibition at 1 µM"
assay_result = "27%"

[[record]]
molecule = "CC1(C)COC(C)(CCN2CCOc3ccc(-c4ccc(OC(F)(F)F)cc4)cc3C2=O)OC1"
measured_quantity = "inhibition at 1 µM"
assay_result = "25%"

[[record]]
molecule = "Cn1ccc(CN2CCOc3ccc(-c4ccc(OC(F)(F)F)cc4)cc3C2=O)n1"
measured_quantity = "inhibition at 1 µM"
assay_result = "55%"

[[record]]
molecule = "O=C(c1cnccn1)N1CCOc2ccc(-c3ccc(OC(F)(F)F)cc3)cc2C1"
measured_quantity = "inhibition at 1 µM"
assay_result = "26%"

[[record]]
molecule = "CN1C(=O)CN(Cc2ccccc2)C(=O)c2cc(-c3ccc(C(F)(F)F)cc3)ccc21"
measured_quantity = "inhibition at 1 µM"
assay_result = "48%"

[[record]]
molecule = "CCN1CCN2C(=O)c3cc(-c4ccc(C(F)(F)F)cc4)ccc3OC[C@@H]2C1"
measured_quantity = "inhibition at 1 µM"
assay_result = "25%"

[[record]]
molecule = "O=C1c2cc(-c3ccc(OC(F)(F)F)cc3)ccc2OCCN1CCN1CCCC1"
measured_quantity = "inhibition at 1 µM"
assay_result = "15%"

[[record]]
molecule = "Cn1cnc(CN2CCOc3ccc(-c4ccc(OC(F)(F)F)cc4)cc3C2=O)c1"
measured_quantity = "inhibition at 1 µM"
assay_result = "25%"

[[record]]
molecule = "O=C1c2cc(-c3ccc(OC4CC4)cc3)ccc2OCCN1Cc1ncccn1"
measured_quantity = "inhibition at 1 µM"
assay_result = "21%"

[[record]]
molecule = "O=C1c2cc(-c3ccc(OC(F)(F)F)cc3)ccc2OCCN1Cc1ccncc1"
measured_quantity = "inhibition at 1 µM"
assay_result = "22%"

[[record]]
molecule = "O=C1c2cc(-c3ccc(OCC(F)(F)F)c(F)c3)ccc2OCCN1Cc1ncccn1"
measured_quantity = "inhibition at 1 µM"
assay_result = "18%"

[[record]]
molecule = "O=C(Cc1ncccn1)N1CCOc2ccc(-c3ccc(C(F)(F)F)cc3)cc2C1"
measured_quantity = "inhibition at 1 µM"
assay_result = "16%"

[[record]]
molecule = "O=C1c2cc(C3=CCCCC3)ccc2OCCN1Cc1ncccn1"
measured_quantity = "inhibition at 1 µM"
assay_result = "23%"

[[record]]
molecule = "COc1ccnc(CN2CCOc3cnc(-c4ccc(OC(F)(F)F)cc4)cc3C2=O)n1"
measured_quantity = "inhibition at 1 µM"
assay_result = "26%"

[[record]]
molecule = "Cc1ccnc(CN2CCOc3cnc(-c4ccc(OC(F)(F)F)cc4)cc3C2=O)n1"
measured_quantity = "inhibition at 1 µM"
assay_result = "36%"

